System: plasma metabolites
DETAILS: rat, in vivo
Where a name gives a salt, the structure may show the parent alone. Marks after values point to notes of the source that are not given here.
I'd be grateful if you could share measured 3-Hydroxybutyrate, plasma, ratio vs control for these entries.

IN: Entry COc1cccc2c1C(=O)c1c(O)c3c(c(O)c1C2=O)C[C@@](O)(C(=O)CO)C[C@@H]3O[C@H]1C[C@H](N)[C@H](O)[C@H](C)O1 [Adriamycin hydrochloride] : reported 3-Hydroxybutyrate, plasma, ratio vs control = ?
OUT: 0.66 *

IN: Entry O=P1(N(CCCl)CCCl)NCCCO1 (stereo not shown) [Cyclophosphamide monohydrate] : reported 3-Hydroxybutyrate, plasma, ratio vs control = ?
OUT: 0.75 *

IN: Entry N.N.O=C([O-])C1(C(=O)[O-])CCC1.[Pt+2] : reported 3-Hydroxybutyrate, plasma, ratio vs control = ?
OUT: 0.74 *

IN: Entry Nc1ccn([C@@H]2O[C@H](CO)[C@@H](O)[C@@H]2O)c(=O)n1 : reported 3-Hydroxybutyrate, plasma, ratio vs control = ?
OUT: 0.53 *
